Experimental details: Plasma clearance in mouse at 1 mg/kg, iv or 2 mg/kg, po
Format: ADME, organism-based
Measured parameter: clearance
# answer = value followed by unit

Incoming: // Input: `O=C(O)c1ccccc1NC(=O)N1CCN(c2cnc3ccccc3n2)CC1` . Output its clearance only.
Outgoing: 25 mL/min/kg

* * *

Experimental details: Half life in mouse at 1 mg/kg, iv or 2 mg/kg, po
Assay type: ADME, organism-based
Condition context: in vivo
Measured parameter: half-life (min)
Answer format: numeric, min implied, no suffix.

Incoming: // Input: `O=C(O)c1ccccc1NC(=O)N1CCN(c2cnc3ccccc3n2)CC1` . Output its half-life only.
Outgoing: 264
